measurement_protocol: Half life in pH 7.4 Tris HCl buffer containing KCl at 10^-3 M by HPLC analysis
Assay type: physicochemical
property_label: half-life at 1000 µM

Quick check: half-life at 1000 µM of Nc1ncnc2c1ncn2CCOCP(=O)(OCCSSCCO)OCCSSCCO ?
> 24 h

###

measurement_protocol: Half life in pH 7.4 phosphate buffered saline at 2 mg by LC-MS analysis
Type: physicochemical
property_label: half-life (h)
Express your answer in h, writing the number without its unit.

Quick check: half-life of C[C@H](Cn1cnc2c(N)ncnc21)OCP(=O)(O)OCCSSCCO ?
3.5

###

measurement_protocol: Therapeutic index, ratio of CC50 for human PBMC to EC50 for HIV1 infected in human PBMC
Type: toxicity
setup_conditions: read-out: Ratio CC50/EC50
selectivity ratio values for the molecules below.

Before answering, review these 3 worked examples.
[[record]]
molecule = "CCCCCCCCCCCCCCCCSSCCOP(=O)(CO[C@H](C)Cn1cnc2c(N)ncnc21)OCc1ccccc1 (some centres undefined)"
result = 2300

[[record]]
molecule = "CCCCCCCCCCCCCCSSCCOP(=O)(O)CO[C@H](C)Cn1cnc2c(N)ncnc21.N"
result = "28000 to 30000"

[[record]]
molecule = "CCCCCCCCCCSSCCOP(=O)(O)CO[C@H](C)Cn1cnc2c(N)ncnc21"
result = "> 590"


Now examine the next entry.
Quick check: selectivity ratio of CCCCCCCCCCCCCCCCCCSSCCOP(=O)(CO[C@H](C)Cn1cnc2c(N)ncnc21)OCCSSCCCCCCCCCCCCCCCCCC ?
> 76

###

System: PBMC
measurement_protocol: Cytotoxicity against human PBMC assessed as reduction in cell viability by XTT assay
Assay type: cell-based
Counter-ions that a name gives are not always drawn.
property_label: CC50 (µM)
Express your answer in µM, writing the number without its unit.

Before answering, review these 3 worked examples.
[[record]]
compound = "CCCCCCCCCCCCCCCCCCSSCCOP(=O)(O)CO[C@H](C)Cn1cnc2c(N)ncnc21"
unit_symbol = "µM"
quantitative_readout = 6.36

[[record]]
compound = "CCCCCCCCCCCCCCCCSSCCOP(=O)(CO[C@H](C)Cn1cnc2c(N)ncnc21)OC (stereo partly drawn)"
unit_symbol = "µM"
quantitative_readout = 38.2

[[record]]
compound = "CCCCCCCCCCCCCCCCSSCCOP(=O)(CO[C@H](C)Cn1cnc2c(N)ncnc21)Nc1ccccc1 (stereo partly drawn)"
unit_symbol = "µM"
quantitative_readout = 34.2


Quick check: CC50 of CC(C)OC(=O)OCOP(=O)(CO[C@H](C)Cn1cnc2c(N)ncnc21)OCOC(=O)OC(C)C [TENOFOVIR DISOPROXIL FUMARATE] ?
43.7

Let us now turn to CCCCCCCCCCCCCCCCSSCCOP(=O)(CO[C@H](C)Cn1cnc2c(N)ncnc21)OCC (stereo partly drawn)
36.2

###

measurement_protocol: Cytotoxicity against human PBMC assessed as reduction in cell viability by XTT assay
Type: cell-based
property_label: CC50

[[record]]
compound = "CCCCCCCCCCCCCCCCSSCCOP(=O)(CO[C@H](C)Cn1cnc2c(N)ncnc21)OCCCCCCCC (stereo partly specified)"
result = "> 50 µM"

[[record]]
compound = "CCCCCCCCCCCCCCCCSSCCOP(=O)(CO[C@H](C)Cn1cnc2c(N)ncnc21)OCCSSCCCCCCCCCCCCCCCC"
result = "> 25 µM"

[[record]]
compound = "CCCCCCCCCCCCCCSSCCOP(=O)(CO[C@H](C)Cn1cnc2c(N)ncnc21)OCCSSCCCCCCCCCCCCCC"
result = "> 100 µM"

[[record]]
compound = "CCCCCCCCCCSSCCOP(=O)(CO[C@H](C)Cn1cnc2c(N)ncnc21)OCCSSCCCCCCCCCC"
result = "> 100 µM"


Quick check: CC50 of CCCCCCCCCCCCCCCCCCSSCCOP(=O)(CO[C@H](C)Cn1cnc2c(N)ncnc21)OCCSSCCCCCCCCCCCCCCCCCC ?
> 25 µM

Let us now turn to CCCCCCCCCCCCSSCCOP(=O)(CO[C@H](C)Cn1cnc2c(N)ncnc21)OCCSSCCCCCCCCCCCC
> 100 µM
